# Tested on: Escherichia coli TOP10
# experimentDescription: shrunken log2 fold change of peptide-encoding DNA abundance (4.5 h post-induction vs induction); higher = less antimicrobial activity (less host growth inhibition)
# conditionSummary: time post-induction: 4.5 h; library: site-saturation at positions 5, 18, 19, 20
Entries and their measured shrunken log2 fold change follow.
Reply: number alone, nothing else.

Completed entries (count: 5):
1. RRIRHRPPRLPRPRPRPDFYPRP -0.609
2. RRIRWRPPRLPRPRPRPTQSPRP 0.472
3. RRIRKRPPRLPRPRPRPFCMPRP -0.115
4. RRIRGRPPRLPRPRPRPRSMPRP 0.666
5. RRIRGRPPRLPRPRPRPKMCPRP 0.102

Input line: Can you look up the measured shrunken log2 fold change of RRIRQRPPRLPRPRPRPACSPRP for me?
Output line: 0.125

Input line: Can you look up the measured shrunken log2 fold change of RRIRGRPPRLPRPRPRPASFPRP for me?
Output line: 0.345

Input line: Can you look up the measured shrunken log2 fold change of RRIRSRPPRLPRPRPRPWHHPRP for me?
Output line: -0.0809

Input line: Can you look up the measured shrunken log2 fold change of RRIRNRPPRLPRPRPRPLFAPRP for me?
Output line: 0.0932

Input line: Can you look up the measured shrunken log2 fold change of RRIRFRPPRLPRPRPRPTPQPRP for me?
Output line: 0.366

Input line: Can you look up the measured shrunken log2 fold change of RRIRGRPPRLPRPRPRPTFCPRP for me?
Output line: 0.46

Input line: Can you look up the measured shrunken log2 fold change of RRIRPRPPRLPRPRPRPYETPRP for me?
Output line: -0.106

Input line: Can you look up the measured shrunken log2 fold change of RRIRPRPPRLPRPRPRPVAVPRP for me?
Output line: 0.143

Input line: Can you look up the measured shrunken log2 fold change of RRIRTRPPRLPRPRPRPHGAPRP for me?
Output line: -0.0597

Input line: Can you look up the measured shrunken log2 fold change of RRIRIRPPRLPRPRPRPGLKPRP for me?
Output line: 0.0429

Input line: Can you look up the measured shrunken log2 fold change of RRIRKRPPRLPRPRPRPTTVPRP for me?
Output line: 0.331

Input line: Can you look up the measured shrunken log2 fold change of RRIRMRPPRLPRPRPRPSAGPRP for me?
Output line: 0.655

Input line: Can you look up the measured shrunken log2 fold change of RRIRPRPPRLPRPRPRPPMLPRP for me?
Output line: 0.18

Input line: Can you look up the measured shrunken log2 fold change of RRIRRRPPRLPRPRPRPYENPRP for me?
Output line: -0.374

Input line: Can you look up the measured shrunken log2 fold change of RRIRYRPPRLPRPRPRPKFCPRP for me?
Output line: -0.291

Input line: Can you look up the measured shrunken log2 fold change of RRIRNRPPRLPRPRPRPQYIPRP for me?
Output line: -0.0546

Input line: Can you look up the measured shrunken log2 fold change of RRIRNRPPRLPRPRPRPFKEPRP for me?
Output line: -0.161

Input line: Can you look up the measured shrunken log2 fold change of RRIRGRPPRLPRPRPRPDLWPRP for me?
Output line: 1.79

Input line: Can you look up the measured shrunken log2 fold change of RRIRLRPPRLPRPRPRPAQRPRP for me?
Output line: 0.172

----------
# Tested on: Escherichia coli TOP10
# experimentDescription: shrunken log2 fold change of peptide-encoding DNA abundance (4.5 h post-induction vs induction); higher = less antimicrobial activity (less host growth inhibition)
# conditionSummary: time post-induction: 4.5 h; library: site-saturation at positions 5, 18, 19, 20
readoutLabel: shrunken log2 fold change
Reply: number alone, nothing else.

1. RRIRGRPPRLPRPRPRPYIMPRP -0.746
2. RRIRNRPPRLPRPRPRPWVVPRP 0.0152
3. RRIRKRPPRLPRPRPRPGRTPRP 0.223
4. RRIRVRPPRLPRPRPRPHNQPRP -0.471
5. RRIRRRPPRLPRPRPRPHMCPRP -0.0222

Input line: Can you look up the measured shrunken log2 fold change of RRIRRRPPRLPRPRPRPQKGPRP for me?
Output line: -0.138

Input line: Can you look up the measured shrunken log2 fold change of RRIRGRPPRLPRPRPRPIPLPRP for me?
Output line: 0.16

Input line: Can you look up the measured shrunken log2 fold change of RRIRGRPPRLPRPRPRPLWSPRP for me?
Output line: 0.117

Input line: Can you look up the measured shrunken log2 fold change of RRIRGRPPRLPRPRPRPPRVPRP for me?
Output line: 1.15

Input line: Can you look up the measured shrunken log2 fold change of RRIRARPPRLPRPRPRPMVDPRP for me?
Output line: 0.299

Input line: Can you look up the measured shrunken log2 fold change of RRIRNRPPRLPRPRPRPHIGPRP for me?
Output line: -0.0161

Input line: Can you look up the measured shrunken log2 fold change of RRIRNRPPRLPRPRPRPLEHPRP for me?
Output line: -0.0225

Input line: Can you look up the measured shrunken log2 fold change of RRIRCRPPRLPRPRPRPFKVPRP for me?
Output line: -0.0177

Input line: Can you look up the measured shrunken log2 fold change of RRIRYRPPRLPRPRPRPTYRPRP for me?
Output line: -0.27

Input line: Can you look up the measured shrunken log2 fold change of RRIRWRPPRLPRPRPRPAGYPRP for me?
Output line: 0.278

Input line: Can you look up the measured shrunken log2 fold change of RRIRYRPPRLPRPRPRPNVHPRP for me?
Output line: -0.745

Input line: Can you look up the measured shrunken log2 fold change of RRIRERPPRLPRPRPRPLCCPRP for me?
Output line: -0.191

Input line: Can you look up the measured shrunken log2 fold change of RRIRYRPPRLPRPRPRPLHIPRP for me?
Output line: -0.271

Input line: Can you look up the measured shrunken log2 fold change of RRIRGRPPRLPRPRPRPCWPPRP for me?
Output line: 0.455

Input line: Can you look up the measured shrunken log2 fold change of RRIRTRPPRLPRPRPRPMLTPRP for me?
Output line: 0.21

----------
# Test system: Escherichia coli TOP10
# experimentDescription: shrunken log2 fold change of peptide-encoding DNA abundance (4.5 h post-induction vs induction); higher = less antimicrobial activity (less host growth inhibition)
# conditionSummary: time post-induction: 4.5 h; library: site-saturation at positions 5, 18, 19, 20
readoutLabel: shrunken log2 fold change

1) RRIRYRPPRLPRPRPRPYPIPRP -0.376
2) RRIRMRPPRLPRPRPRPQFAPRP 0.0822
3) RRIRIRPPRLPRPRPRPNLNPRP -0.237
4) RRIRERPPRLPRPRPRPSDSPRP -0.186
5) RRIRKRPPRLPRPRPRPEWEPRP 0.271

Input line: Can you look up the measured shrunken log2 fold change of RRIRPRPPRLPRPRPRPYENPRP for me?
Output line: -0.66

Input line: Can you look up the measured shrunken log2 fold change of RRIRQRPPRLPRPRPRPEKGPRP for me?
Output line: -0.017

Input line: Can you look up the measured shrunken log2 fold change of RRIRIRPPRLPRPRPRPCYDPRP for me?
Output line: -0.014

----------
# Tested on: Escherichia coli TOP10
# experimentDescription: shrunken log2 fold change of peptide-encoding DNA abundance (4.5 h post-induction vs induction); higher = less antimicrobial activity (less host growth inhibition)
# conditionSummary: time post-induction: 4.5 h; library: site-saturation at positions 5, 18, 19, 20
readoutLabel: shrunken log2 fold change
Reply: number alone, nothing else.

Completed entries (count: 5):
1) RRIRHRPPRLPRPRPRPEWKPRP -0.00613
2) RRIRYRPPRLPRPRPRPRVWPRP 1.85
3) RRIRKRPPRLPRPRPRPCLQPRP 0.194
4) RRIRARPPRLPRPRPRPCARPRP 0.786
5) RRIRPRPPRLPRPRPRPWKWPRP 0.423

Kindly consider the entry below.
Input line: Can you look up the measured shrunken log2 fold change of RRIRDRPPRLPRPRPRPMCWPRP for me?
Output line: 0.564

----------
Entries and their measured shrunken log2 fold change follow.
# System: Escherichia coli TOP10;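 further: peptides expressed intracellularly from a pBAD plasmid library in pooled LB shake-flask culture, induced with 0.3% L-arabinose, DNA abundance read by NGS, three biological replicates, DESeq2 with apeglm shrinkage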
# experimentDescription: shrunken log2 fold change of peptide-encoding DNA abundance (4.5 h post-induction vs induction); higher = less antimicrobial activity (less host growth inhibition)
# conditionSummary: time post-induction: 4.5 h; library: site-saturation at positions 5, 18, 19, 20

Completed entries (count: 10):
1) RRIRIRPPRLPRPRPRPDYCPRP -0.163
2) RRIRHRPPRLPRPRPRPIWWPRP 0.0995
3) RRIRCRPPRLPRPRPRPKCVPRP -0.0957
4) RRIRSRPPRLPRPRPRPMIAPRP 0.0435
5) RRIRGRPPRLPRPRPRPYEDPRP -0.017
6) RRIRVRPPRLPRPRPRPGVTPRP 0.0341
7) RRIRWRPPRLPRPRPRPRYIPRP -0.665
8) RRIRHRPPRLPRPRPRPCGVPRP -0.00991
9) RRIRIRPPRLPRPRPRPYLHPRP -1.61
10) RRIRMRPPRLPRPRPRPMNQPRP 0.646

Input line: Can you look up the measured shrunken log2 fold change of RRIRYRPPRLPRPRPRPTASPRP for me?
Output line: -0.389

Input line: Can you look up the measured shrunken log2 fold change of RRIRFRPPRLPRPRPRPLGKPRP for me?
Output line: -0.17

Input line: Can you look up the measured shrunken log2 fold change of RRIRARPPRLPRPRPRPVEIPRP for me?
Output line: 0.0505

Input line: Can you look up the measured shrunken log2 fold change of RRIRVRPPRLPRPRPRPCLYPRP for me?
Output line: -0.0189

Input line: Can you look up the measured shrunken log2 fold change of RRIRGRPPRLPRPRPRPCNYPRP for me?
Output line: -0.11

Reference source: the supplement of paper PMC9112550
